Data origin: PubChem BioAssay

test: RPL19A-GFP modulators, yeast TOR pathway, confirmation, cell-based, S. cerevisiae, flow cytometry, cherry picks, mother/daughter gates (AID 2270); details: S. cerevisiae RPL19A-GFP strain, 3 h, measured here: mother cell gate, at 10 µM, stronger effect = lower value, 100 = same GFP as DMSO wells
# GFP response vs DMSO values compiled below
Give just the numeric value; % need not be written.

Past entries and their recorded results:
{"columns": ["Compound", "GFP response vs DMSO, %"],
 "data": [
  ["O=C1ON=C(c2ccccc2)/C1=C/c1ccco1", 85.2],
  ["CCOC(=O)c1cc2c(=O)n3ccccc3nc2n(CCOC)c1=NC(=O)C(C)(C)C", 97.3],
  ["O=C(/C=C/c1ccccc1)c1ccccc1O", 103],
  ["Cc1cc(N2CCC(C)CC2)n2ncc(-c3ccccc3)c2n1", 100],
  ["Cc1ccc(N2C(=O)C(Cl)=C(Nc3c(C)n(C)n(-c4ccccc4)c3=O)C2=O)cc1", 96.1],
  ["C[n+]1ccc(/C=C/c2c[nH]c3ccc(F)cc23)cc1", 102],
  ["Nc1cc(N)nc(SCC(=O)N2CCc3ccccc32)n1", 99.7],
  ["CCCc1nnc(N2C(=O)c3cccc4cccc(c34)C2=O)s1", 102],
  ["CCCn1c(=N)c(C(=O)NC2CCCC2)cc2c(=O)n3cccc(C)c3nc21", 78],
  ["Clc1ccccc1N=C1NN=C(c2cccs2)CS1", 95.7]
]}

GFP response vs DMSO for C=CCNC(=S)N/N=C(\C)c1cccc(OC)c1 is 101

GFP response vs DMSO for CCCc1[nH]nc2c1C(c1cccc(OC(=O)c3ccco3)c1)C(C#N)=C(N)O2 (stereo not given) is 96.7

---

assay: modulators of MEP2-GFP levels in yeast, primary screen, S. cerevisiae, multiplex flow cytometry (AID 1867);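 note: median GFP channel fluorescence of barcode-gated MEP2-GFP cells measured by flow cytometry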; settings: S. cerevisiae MEP2-GFP strain, 3 h, at 10 µM, stronger effect = higher value, 100% means same as DMSO wells
Inconclusive results are not listed.
Readout Kind: GFP response vs DMSO (%)
Give just the numeric value; % need not be written.

GFP response vs DMSO for CC(C)NCC(O)COc1ccc(CCOCC2CC2)cc1 (centres undefined) is 102

GFP response vs DMSO for Nc1cccc(C(=O)O)c1 is 116

GFP response vs DMSO for CCCN(CCC)S(=O)(=O)c1ccc(C(=O)O)cc1 is 107

GFP response vs DMSO for CC(CCc1ccccc1)NCC(O)c1ccc(O)c(C(N)=O)c1 (centres undefined) is 98.9

---

assay: RPL19A-GFP modulators, yeast TOR pathway, confirmation, cell-based, S. cerevisiae, flow cytometry, cherry picks, mother/daughter gates (AID 2270); details: S. cerevisiae RPL19A-GFP strain, 3 h, measured here: daughter cell gate, at 10 µM, stronger effect = lower value, 100 = same GFP as DMSO wells
Readout Kind: GFP response vs DMSO (%)
Give just the numeric value; % need not be written.

Past entries and their recorded results:
{"columns": ["Molecule", "GFP response vs DMSO, %"],
 "data": [
  ["CC(=O)SC(C[N+](=O)[O-])c1cn(C(C)=O)c2ccccc12 (stereo not given)", 102],
  ["Cc1cccc(NC(=O)CC2SC(=O)N(c3ccccc3)C2=O)c1 (stereo not given)", 99.4],
  ["O=c1oc(/C=C/c2ccc([N+](=O)[O-])s2)nc2ccccc12", 113],
  ["COc1ccc(CCNc2nc(-c3sc(C)nc3C)cs2)cc1OC", 97.6],
  ["Cc1[nH][nH]c(=O)c1C(c1ccc(-c2ccc(Cl)cc2)o1)c1c(C)[nH][nH]c1=O", 102]
]}

Shifting focus to the molecule that follows.
GFP response vs DMSO for c1cc2c(cc1C1CCCCC1)c1c3n2CCCNC3CCC1 (stereo not given) is 99

---

test: promoters of myeloid differentiation in arrested cells, primary screen, cell-based, GFP/MAC1 double positive, flow cytometry, validation set (AID 588685); settings: ER-HoxA9 marrow cells, normalized: vehicle 0, fulvestrant 100;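 note: compound exposure lasts four days before antibody staining and flow analysis; 0% = DMSO wells and 100% = 5 µM fulvestrant positive control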
Active and inactive are the calls of the source.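 How the source made its calls: active means differentiation response of at least 50%, scaled between solvent and reference control, from cells with both markers; inactive means the rest.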
// one of true = active, false = inactive, no free text

{"columns": ["Compound", "Group"],
 "data": [
  ["O=c1cc(-c2ccc3c(c2)OCCO3)oc2ccc(Cl)cc12", "false"],
  ["O=C1OCCN1/N=C/c1ccc([N+](=O)[O-])o1", "false"],
  ["CNc1nc(N(C)C)nc(N(C)C)n1", "false"]
]}

In this assay, the call recorded for COc1cc(C2CC(=O)NC3=C2C(=O)CC(C)(C)C3)ccc1O (stereo not given) was what? false

In this assay, the call recorded for COc1cccc(OCc2cc(C3Nc4ccccc4C(=O)N3Cc3ccco3)ccc2OC)c1 (stereo not given) was what? false

In this assay, the call recorded for CCOC(=O)C1C(=O)CC(C)(O)C(C(=O)OCC)C1/C=C/c1ccccc1 (stereo not given) was what? false

In this assay, the call recorded for CCN1C(=O)C(CC(=O)Nc2ccc(F)cc2)N(Cc2ccc3c(c2)OCO3)C1=S (stereo not given) was what? true

In this assay, the call recorded for N=C1C(c2ccccc2)=C(O)CN1CCCO was what? false

In this assay, the call recorded for CC(C)(C)c1ccc(C(O)CCCN2CCC(C(O)(c3ccccc3)c3ccccc3)CC2)cc1 (stereo not given) was what? false

In this assay, the call recorded for OC(CCN1CCCCC1)(c1ccccc1)C1CCCCC1 (stereo not given) was what? false

---

# GFP response vs DMSO values compiled below
assay: modulators of MEP2-GFP levels in yeast, primary screen, S. cerevisiae, multiplex flow cytometry (AID 1867);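 note: median GFP channel fluorescence of barcode-gated MEP2-GFP cells measured by flow cytometry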; conditions: S. cerevisiae MEP2-GFP strain, 3 h, at 10 µM, stronger effect = higher value, 100% means same as DMSO wells
Inconclusive results are not listed.
Give just the numeric value; % need not be written.

{"columns": ["Compound", "Unit Spec", "Val"],
 "data": [
  ["O=C1OCCN1/N=C/c1ccc([N+](=O)[O-])o1", "%", 103]
]}

GFP response vs DMSO for CC(=O)OCC(=O)[C@@]12OC(C)(C)O[C@@H]1C[C@H]1[C@@H]3C[C@H](F)C4=CC(=O)C=C[C@]4(C)[C@@]3(F)[C@@H](O)C[C@@]12C is 107

GFP response vs DMSO for COc1cc(Cl)cc2c1Sc1ccccc1/C2=C/CCN(C)C is 105

---

# GFP response relative to DMSO values compiled below
assay: LAP4-GFP expression modulators in yeast, confirmation, cell-based, cherry picks, flow cytometry, mother/daughter gates (AID 2271);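 note: ratio of sample to DMSO plate mean so 100% equals DMSO level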; conditions: S. cerevisiae LAP4-GFP strain, 3 h, at 10 µM, stronger effect = higher value, 100 means same as DMSO control
Give just the numeric value; % need not be written.

{"columns": ["Molecule", "Val"],
 "data": [
  ["CCCc1[nH]nc2c1C(c1ccc(OC(=O)c3ccco3)cc1)C(C#N)=C(N)O2 (configuration not stated)", 91.9]
]}

GFP response relative to DMSO for O=C(OCC(=O)N1CCN(C(=O)c2ccco2)CC1)c1cc(-c2ccc(F)cc2)nc2ccccc12 is 133

GFP response relative to DMSO for O=C(CSc1nc2ccsc2c(=O)n1CC1CCC(C(=O)O)CC1)c1ccc(F)cc1 (configuration not stated) is 89

GFP response relative to DMSO for Cc1cccc(NC(=O)CC2SC(=O)N(c3ccccc3)C2=O)c1 (configuration not stated) is 126

GFP response relative to DMSO for O=[N+]([O-])c1ccc(Cl)cc1Sc1ccccn1 is 94.1

GFP response relative to DMSO for CCOC(=O)Cc1csc(NC(=O)CCCCCN2C(=O)c3cccc4cccc(c34)C2=O)n1 is 88.4

GFP response relative to DMSO for O=C(OCCOc1ccccc1)c1n[nH]c2ccccc12 is 103

GFP response relative to DMSO for CC(C)Oc1ccc(C(=O)/C=C2/C(=O)Nc3ccccc32)cc1 is 161

GFP response relative to DMSO for COc1ccccc1C1CCN(Cc2c(C)[nH]c3ccccc23)CC1 is 97

---

assay: modulators of MEP2-GFP levels in yeast, confirmation, S. cerevisiae, flow cytometry GFP, cherry picks (AID 2272);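 note: ratio of well signal to plate DMSO mean so 100% equals DMSO level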; details: S. cerevisiae MEP2-GFP strain, 3 h, at 10 µM, stronger effect = higher value
Readout Kind: GFP response vs DMSO (%)
Give just the numeric value; % need not be written.

Past entries and their recorded results:
{"columns": ["Mol", "Val"],
 "data": [
  ["N#C/C(=C\\c1c(N2CCN(c3ccccc3)CC2)nc2ccccn2c1=O)C(N)=O", 105],
  ["FC(F)(F)c1cc(-c2cccs2)nc2cc(-c3cccs3)nn12", 103],
  ["O=C(OCC(=O)N1CCN(C(=O)c2ccco2)CC1)c1cc(-c2cccc(Br)c2)nc2ccccc12", 125]
]}

Shifting focus to the compound that follows.
GFP response vs DMSO for CC(C)CC[n+]1ccccc1/C=C/c1ccc(N(C)C)cc1 is 126
